System: Bacillus subtilis ATCC 6633
Experiment: Disk diffusion assay, zone of inhibition
Format: cell-based
Details: ATCC6633, N-arylamine derivatives, 10 μL of 0.1 M in DMSO on 6 mm disk, 20-24 hours at 35° C., NA=No activity, read-out: Zone of inhibition in mm, B s
Measured endpoint: zone of inhibition at 100000 µM

[[record]]
molecule = "Cc1ccc(Br)cc1 [d]"
test_result = "8 mm"

[[record]]
molecule = "Cc1ccc(Cl)cc1 [c]"
test_result = "18 mm"

[[record]]
molecule = "Cc1ccc(Oc2ccccc2)cc1 [h]"
test_result = "12 mm"

[[record]]
molecule = "Cc1ccc(C(C)(C)C)cc1 [f]"
test_result = "14 mm"


====

Measured zone of inhibition at 100000 µM, listed per entry for reference.
System: Staphylococcus aureus ATCC 25923
Assay: Disk diffusion assay, zone of inhibition
Format: cell-based
Conditions: ATCC25923, N-arylamine derivatives, 10 μL of 0.1 M in DMSO on 6 mm disk, 20-24 hours at 35° C., NA=No activity, read-out: Zone of inhibition in mm, S a
Measured endpoint: zone of inhibition at 100000 µM

[[record]]
compound = "Cc1ccc(C(C)(C)C)cc1 [f]"
target = "Staphylococcus aureus ATCC 25923"
measured_endpoint = "zone of inhibition at 100000 µM"
test_result = "8 mm"

[[record]]
compound = "Cc1ccc(Oc2ccccc2)cc1 [h]"
target = "Staphylococcus aureus ATCC 25923"
measured_endpoint = "zone of inhibition at 100000 µM"
test_result = "11 mm"

[[record]]
compound = "Cc1ccc(Br)cc1 [d]"
target = "Staphylococcus aureus ATCC 25923"
measured_endpoint = "zone of inhibition at 100000 µM"
test_result = "9 mm"

[[record]]
compound = "Cc1ccc(Cl)cc1 [c]"
target = "Staphylococcus aureus ATCC 25923"
measured_endpoint = "zone of inhibition at 100000 µM"
test_result = "18 mm"

